target: apoferritin (Equus caballus, UniProt P02791)
Sequence (P02791 2-175 limits assumed): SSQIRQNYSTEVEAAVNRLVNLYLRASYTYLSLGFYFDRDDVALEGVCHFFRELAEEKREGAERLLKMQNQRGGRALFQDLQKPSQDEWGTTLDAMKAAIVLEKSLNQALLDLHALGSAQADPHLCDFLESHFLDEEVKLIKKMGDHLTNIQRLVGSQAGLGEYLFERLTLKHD
Counter-ions that a name gives are not always drawn.
Kindly supply the reported Kd values for the records listed here.
Answers are plain numbers, in µM.

Illustrative cases are given below, each with its answer.
1) Cc1cc(C(C)(C)C)cc(C)c1CC1=NCCN1 [X-6000, Xylometazoline hydrochloride]	177
2) CC(N)c1cccc(Cl)c1Cl (racemic) [D-103]	506
3) N#C/C(=C\c1ccc(O)c(O)c1)C(N)=S [T-7540, Tyrphostin 47]	189

Go through the list and state Kd for each entry.
1. c1ccc([C@H]2CN3CCSC3=N2)cc1 [L-9756, (-)-Tetramisole hydrochloride]
2. CCSC(=N)Nc1ccc(C(F)(F)F)cc1 [T7188, TFPI hydrochloride]
3. CCOC(=O)C(C)(C)Oc1ccc(Cl)cc1 [C-6643, Clofibrate]
4. C#CCN(C)C(C)Cc1ccccc1 (stereo not drawn) [M-003, R-(-)-Deprenyl hydrochloride]
5. Cc1cccc(C#Cc2ccccc2)n1 [M-5435, 6-Methyl-2-(phenylethynyl)pyridine]
6. S=C([S-])OC1CC2CC1C1CCCC21.[K+] (stereo not shown) [T-8543]

Given back:
233
25.3
11.5
74
313
12.3
